Test Target: T1, human IgG antibody (human)
T1 construct: Injected at 10 to 3000 nM over the immobilised ligands in SPR
Measurement Notes: SPR (Biacore), ligand immobilised on CM5
Square brackets hold non-standard residues; d marks the D form. Ends that are not written are not given here. peg8 = octa(ethylene glycol) chain, 8 ethylene glycol units
Endpoint Label: koff (s⁻¹)
Express your answer in s⁻¹, writing the number without its unit.

binder="Ac-EQQNAFYK (Synthetic peptide, immobilised on a CM5 sensor chip; also called immobilized carrier T) [polypeptide Ac-EQQNAFYK (SEQ ID NO: 20)]" endpoint_label=koff measured=0.00014
binder="Ac-KKKEQQNAFYEILHKKK (Synthetic peptide, immobilised on a CM5 sensor chip; also called immobilized carrier W) [polypeptide Ac-KKKEQQNAFYEILHKKK (SEQ ID NO: 23)]" endpoint_label=koff measured=0.00016
binder="DQQSAFY (Synthetic peptide, immobilised on a CM5 sensor chip; also called immobilized carrier L) [polypeptide as set forth in SEQ ID NO: 12 (DQQSAFY)]" endpoint_label=koff measured=0.00015
binder="DQQSAFYEILH (Synthetic peptide, immobilised on a CM5 sensor chip; also called immobilized carrier M) [polypeptide as set forth in SEQ ID NO: 13 (DQQSAFYEILH)]" endpoint_label=koff measured=0.00015

Memo: Ac-EQQNAFY[peg8]K[peg8]EQQNAFY (Synthetic fusion polypeptide, 15 amino acid residues, the two units and the central Lys joined by PEG linkers and not by peptide bonds; immobilised on a CM5 sensor chip; also called immobilized carrier Y) [fusion polypeptide Ac-EQQNAFY-(peg)8-K-(peg)8-EQQNAFY (SEQ ID NO: 25)] , reported koff: 0.00019

The reported value for KKKEQQNAFYEILHKKK (Synthetic peptide, immobilised on a CM5 sensor chip; also called immobilized carrier G) [polypeptide as set forth in SEQ ID NO: 7 (KKKEQQNAFYEILHKKK)] in terms of koff is 0.00016

koff for KEQQNAFY (Synthetic peptide, immobilised on a CM5 sensor chip; also called immobilized carrier B) [polypeptide as set forth in SEQ ID NO: 2 (KEQQNAFY)] is 0.00013
